Please provide measured melting point for the entries that follow.

Inquiry: Reported melting point, molecule CS(=O)(=O)c1ccc(C(CC2CC/C(=N/O)C2)C(=O)Nc2cnc(Br)cn2)cc1Cl (stereo not shown) [Example 52] : ____
Reply text: 100 to 106 °C

Inquiry: Same thing, different molecule: O=C1CCC(CC(C(=O)Nc2nccs2)c2ccc(Cl)c(Cl)c2)C1 (stereo not shown) [Example 43]
Reply text: 146 to 148 °C

Inquiry: Same thing, different molecule: CO/N=C1/CCCC1CC(C(=O)Nc1cnccn1)c1ccc(S(C)(=O)=O)c(Cl)c1 (stereo not shown) [Example 33]
Reply text: 74 to 76 °C

Inquiry: Same thing, different molecule: CS(=O)(=O)c1ccc(C(CC2CCOCC2)C(=O)Nc2cnc(/C(N)=N/O)cn2)cc1Cl (stereo not shown) [Example 23]
Reply text: 137.2 to 140.5 °C

Inquiry: Same thing, different molecule: CNC(=O)NC(=O)C(CC1CCC(=O)C1)c1ccc(Cl)c(Cl)c1 (stereo not shown) [Example 42]
Reply text: 70 to 74 °C

Inquiry: Same thing, different molecule: O=C(Nc1nccs1)C(CC1CCC(F)(F)C1)c1ccc(Cl)c(Cl)c1 (stereo not shown) [Example 56]
Reply text: 154 to 156 °C

Inquiry: Same thing, different molecule: CS(=O)(=O)c1ccc(C(CC2CCC(=O)C2)C(=O)Nc2nccs2)cc1 (stereo not shown) [Example 44]
Reply text: 94 to 97 °C

Inquiry: Same thing, different molecule: CNC(=O)NC(=O)C(CC1CCC(O)C1)c1ccc(Cl)c(Cl)c1 (stereo not shown) [Example 35]
Reply text: 82 to 84 °C

Inquiry: Same thing, different molecule: CNC(=O)NC(=O)C(CC1CCCC1=O)c1ccc(Cl)c(Cl)c1 (stereo not shown) [Example 27]
Reply text: 63 to 65 °C

Inquiry: Same thing, different molecule: CC1(O)CCC(CC(C(=O)Nc2cnccn2)c2ccc(S(C)(=O)=O)c(Cl)c2)C1 (stereo not shown) [Example 57]
Reply text: 78 to 84 °C

Inquiry: Same thing, different molecule: CO/N=C1/CCC(CC(C(=O)Nc2nccs2)c2ccc(Cl)c(Cl)c2)C1 (stereo not shown) [Example 53]
Reply text: 69 to 72 °C

Inquiry: Same thing, different molecule: CS(=O)(=O)c1ccc(C(CC2CC/C(=N/O)C2)C(=O)Nc2cnccn2)cc1Cl (stereo not shown) [Example 51]
Reply text: 205 to 207 °C

Inquiry: Same thing, different molecule: CNC(=O)NC(=O)C(CC1CCCC1O)c1ccc(Cl)c(Cl)c1 (stereo not shown) [Example 24]
Reply text: 62 to 64 °C

Inquiry: Same thing, different molecule: CS(=O)(=O)c1ccc(C(CC2CCC(=O)C2)C(=O)Nc2cnc(Br)cn2)cc1Cl (stereo not shown) [Example 49]
Reply text: 97 to 103 °C

Inquiry: Same thing, different molecule: CO/N=C1/CCC(CC(C(=O)Nc2cnc(Br)cn2)c2ccc(S(C)(=O)=O)c(Cl)c2)C1 (stereo not shown) [Example 55]
Reply text: 91 to 97 °C

Inquiry: Same thing, different molecule: O=C(Nc1nccs1)C(CC1CCCO1)c1ccc(Cl)c(Cl)c1 (stereo not shown) [Example 2]
Reply text: 69 to 71 °C

Inquiry: Same thing, different molecule: O=C(Nc1nccs1)C(CC1CC/C(=N/O)C1)c1ccc(Cl)c(Cl)c1 (stereo not shown) [Example 50]
Reply text: 98 to 101 °C

Inquiry: Same thing, different molecule: O=C1CCCC1CC(C(=O)Nc1nccs1)c1ccc(Cl)c(Cl)c1 (stereo not shown) [Example 28]
Reply text: 79 to 81 °C

Inquiry: Same thing, different molecule: CS(=O)(=O)c1ccc(C(CC2CCC(O)C2)C(=O)Nc2nccs2)cc1 (stereo not shown) [Example 37]
Reply text: 69 to 72 °C

Inquiry: Same thing, different molecule: CC(=O)OC1CCC(CC(C(=O)Nc2nccs2)c2ccc(Cl)c(Cl)c2)C1 (stereo not shown) [Example 40]
Reply text: 49 to 52 °C

Inquiry: Same thing, different molecule: CS(=O)(=O)c1ccc(C(CC2CCCC2=O)C(=O)Nc2nccs2)cc1 (stereo not shown) [Example 29]
Reply text: 228 to 230 °C

Inquiry: Same thing, different molecule: O=C(Nc1nccs1)C(CC1CCCC1O)c1ccc(Cl)c(Cl)c1 (stereo not shown) [Example 25]
Reply text: 86 to 88 °C

Inquiry: Same thing, different molecule: CNC(=O)NC(=O)C(CC1CCCCO1)c1ccc(Cl)c(Cl)c1 (stereo not shown) [Example 7]
Reply text: 172.8 to 174.2 °C

Inquiry: Same thing, different molecule: CO/N=C1/CCC(CC(C(=O)Nc2cnccn2)c2ccc(S(C)(=O)=O)c(Cl)c2)C1 (stereo not shown) [Example 54]
Reply text: 85 to 87 °C

Inquiry: Same thing, different molecule: CS(=O)(=O)c1ccc(C(CC2CCCC2O)C(=O)Nc2nccs2)cc1 (stereo not shown) [Example 26]
Reply text: 205 to 206 °C

Cited source: patent US7259166B2
